Where do these numbers come from? They come from PubChem BioAssay AID1645862.

Biological target: Ubiquitin carboxyl-terminal hydrolase 8 (Homo sapiens)
Experiment: Ubiquitin-specific protease 8 inhibitors, concentration-effect, biochemical, validation of initial actives (AID 1645862);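 also: potency reflects inhibition of USP8 cleavage of a ubiquitin rhodamine substrate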
Conditions: recombinant USP8 deubiquitinase activity assay
Calls of active or inactive are those of the source. No rule for the calls is given here.
Please reply with one of these outcomes: True for active, False for inactive

These solved cases illustrate the format of a correct answer.
Cc1ccc2[nH]c(=O)c(-c3nc4ccc(C)cn4c3NCc3ccc(F)cc3)cc2c1 :: False
Cn1c(=O)n([C@@H](Cc2ccccc2)C(=O)N[C@@H](C(=O)O)c2ccc(O)cc2)c(=O)c2ccccc21 :: False
COc1ccc(CCN2COc3c(cc(Cl)c4cccnc34)C2)cc1OC :: False

QUERY: I'd appreciate the recorded outcome for O=C(CNC(=O)c1ccc2nc(-n3cccc3)sc2c1)NCc1cccc(Cl)c1 from this test.
RESULT: False

QUERY: Then what about the molecule O=C(COC(=O)c1ccc(NS(=O)(=O)c2ccc(F)c(F)c2)cc1)Nc1ccc(OCc2ccccc2)cc1 ?
RESULT: False

QUERY: Try this molecule next: Cc1cc(C(=O)Nc2cc([N+](=O)[O-])cc3oc(-c4ccccc4)cc23)on1
RESULT: False

QUERY: And what about the molecule O=C(Nc1ccccc1F)c1nc(-c2cn(-c3ccc(F)cc3)nn2)no1 ?
RESULT: True

QUERY: Queued: Cc1ccccc1NC(=O)Nc1cccc(-c2nnc(-c3ccccc3)o2)c1
RESULT: False

QUERY: Repeat with COc1ccc(CCNC(=O)Cn2c(=O)c3sccc3n(Cc3cccc([N+](=O)[O-])c3)c2=O)cc1OC
RESULT: False

QUERY: Continue with O=C(Cc1nnc(NC(=O)Nc2ccc3c(c2)OCO3)s1)NCc1ccccc1
RESULT: False

QUERY: Follow-up item: Nc1ncnc2c1ncn2[C@@H]1O[C@H](CO)C[C@@H]1O
RESULT: False

QUERY: Also need O[C@H]1[C@H](NCc2cccc(C(F)(F)F)c2)[C@@H](c2cncnc2)C[C@H]1O , thanks.
RESULT: False
